TESTED ON: PD-L1-Biotin (UniProt Q9NZQ7 19-238, limits assumed, biotin label (site not stated))
Sequence (Q9NZQ7 19-238 limits assumed): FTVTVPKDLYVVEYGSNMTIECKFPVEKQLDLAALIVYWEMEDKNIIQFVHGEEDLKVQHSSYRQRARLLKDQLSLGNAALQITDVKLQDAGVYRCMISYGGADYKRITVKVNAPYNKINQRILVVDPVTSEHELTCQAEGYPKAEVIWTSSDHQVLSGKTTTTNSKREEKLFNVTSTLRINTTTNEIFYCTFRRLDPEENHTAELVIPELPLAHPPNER
TEST: competitive flow cytometry: antibody premixed with PD-L1-Biotin, blocking of binding to 293T-hPD1 cells
MEASUREMENT KIND: IC50
Number first, unit second: that is the form wanted.

binder="antibody 3 (VHH) VHH: EVQLVESGGGSVQTGGSLRLSCVASGRDFLTYGMGWFRQAPGKEREFVASINWSGSMTYYADSVKGRFTISRDNAKNTVYLQMNSLKPGDTAVYICAARRGAVTYASSNEYEHWGQGTQVTVSS" measurement_kind=IC50 value_measured="1.1 nM"
binder="antibody 1 (VHH, expressed in mammalian cells) VHH: QVQLVESGGGLVQAGGSLRLSCAASGRSFSSSGMGWFRQAPGKDREFVATINSSGGDTYYRDSVEGRFTTSRDNAKNTMSLQMNDLKPEDTAVYYCAAKEGGGPSSIPAIYDYWGQGTQVTVSS" measurement_kind=IC50 value_measured="4.2 nM"
binder="antibody 2 (VHH) VHH: QVQLVESGGGLVQPGGSLSLSCVASGFTFSSYAMRWVRQAPGKEPEWVAGINTGSEIVVYANSVRGRFAISRDNARDTLFLQMNSLKPEDTAVYYCATGLVSAEHDGIWGQGTQVTVSS" measurement_kind=IC50 value_measured="2.7 nM"

Proceeding to the next binder to report its IC50.
Requested read-out: IC50. Entry: antibody 4 (VHH) VHH: EVQLVESGGGLVQAGDSLRLSCTASGRDFLTYGMGWFRQAPGKEREFVASINWSGSMTYYADSVKGRFTISRDNAKNTVYLQMNSLKPGDTAVYICAARRGAVTYASSNEYEHWGQGTQVTVSS 2.8 nM

The values you see were collected from patent US20240327518A1.
